System: Human papillomavirus type 1a E7 protein (residues 1-88)
Experiment: HPV1a E7 small-molecule binders, primary screen, biochemical, small-molecule microarray, residues 1-88, 635 nm (AID 1129)
Conditions: small-molecule microarray binding, fluorescence 635 nm; higher = more signal
Classify by measured composite z-score: Fulfilled if it is equal to or exceeds -0.5, Not fulfilled if it is smaller.

> print(dat)
                                     smiles  qualitative.label
1  COC(=O)[C@@H]1CC[C@@H](C)[C@H](c2ccc(Br)cc2)N1          Fulfilled

Ask: Does `CC(CCN1CCCCc2nc(C)c(C)cc21)=NOC[C@@H](C)[C@H](OCc1ccccc1)C(C)C` have a reported composite z-score of at least -0.5?
Result: Not fulfilled

Ask: Quick check: does `CCc1cc2c(nc1CC)CCN(CCC(C)=NO[C@@H](C)c1cn([C@H](CO)Cc3ccccc3)nn1)C2` have composite z-score greater than or equal to -0.5?
Result: Fulfilled

Ask: In plain terms: is recorded composite z-score at least -0.5 for `CO[C@@H]1COC(=O)[C@@H](C)COC(=O)[C@@H](C)NC(=O)CC=C[C@@H]1C` ?
Result: Not fulfilled

Ask: Check the entry `COC(=O)[C@H]1O[C@@H](c2c(OC)c(OC)c(C)c(OC)c2OC)[C@H](C)[C@@H](O)[C@H]1C` : does composite z-score equal or exceed -0.5?
Result: Fulfilled

Ask: Hi, just wondering whether `CO[C@H]1COC(=O)CC=C[C@H](C)COC(=O)[C@@H](C)NC(=O)CC=C[C@@H]1C` shows composite z-score of -0.5 or higher.
Result: Not fulfilled

Ask: Dear colleague, could you confirm whether `O=C1C2=CC[C@H]3C(=O)N(c4cccc(Oc5ccccc5)c4)C(=O)[C@H]3[C@H]2[C@H](O)[C@@H]2O[C@H]12` has composite z-score at or above -0.5?
Result: Fulfilled

Ask: I'd appreciate it if you could say whether `COC(=O)[C@H]1[C@@H](O)[C@@]2(O)c3ccccc3O[C@@]2(c2ccccc2)[C@@H]1c1ccccc1` has composite z-score at least equal to -0.5.
Result: Fulfilled

Ask: Hi team, for `C[C@H]1Cc2c(COc3ccccc3)nc3c(c2CO1)CN(CCOc1ccccc1)CC3` , is the recorded composite z-score at or above -0.5?
Result: Fulfilled

Ask: For this compound, is measured composite z-score -0.5 or higher? `CCOC(=O)NN=C1C[C@@H](O)[C@@H](O)[C@@H]2[C@@H]3C(=O)N(c4cccc(Oc5ccccc5)c4)C(=O)[C@@H]3CC[C@H]12`
Result: Fulfilled

* * *

Tested on: glycogen synthase kinase-3 (GSK3A per assay name; protocol says GSK3B)
Test: GSK3 binders on small-molecule microarrays, primary screen, biochemical, small-molecule microarray, 635 nm fluorescence, GSK3A (AID 1103); note: the record names both GSK3A and GSK3B
Conditions: small-molecule microarray binding, fluorescence 635 nm; higher = more signal
Collected composite z-score values appear next to each entry.
# output: bare number, no unit

> print(dat)
                                   compound  recorded.measurement
1  CCOC(=O)C1=NO[C@]2(C=C(Br)C3(OCCCO3)[C@H]3O[C@H]32)C1                -0.512
2  CCOC(=O)[C@H](Cc1ccccc1)NC(=O)CCC1CC(OC(=O)NCCc2ccc(F)cc2)CC2(CCCC(COC(=O)NCC3CCCCC3)O2)O1 (stereo partly drawn)                  1.24

Ask: composite z-score of `CC(C)CON=C1[C@H]2CCn3c(=O)n(Cc4cc5c(cc4Cl)OCO5)c(=O)n3[C@H]2[C@H](O)[C@@H]2O[C@H]12` on glycogen synthase kinase-3 (GSK3A per assay name; protocol says GSK3B)?
Result: 0.589

* * *

Experiment: Plasmodium falciparum growth inhibition, primary screen, strain 3D7, DAPI fluorescence, 100 nL (AID 1184);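 note: parasites grown inside human red blood cells in medium with human serum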
Conditions: P. falciparum 3D7 growth, 3 d, higher = more signal
Recorded z-score determines the label; the label ranges are bin A = under -0.3, bin B = from -0.3 up to 0.3, bin C = 0.3 and over

Ask: Class? Entry: `CC(CCN1CCc2nc(-c3ccccc3)c(-c3ccccc3)cc2C1)=NOC[C@@H](O)COCc1ccco1`
Result: bin C

Ask: Note: place this compound into its band. Item: COC(=O)[C@H](C)NC(=O)CCC1CC(OC(=O)NCc2ccc3c(c2)OCO3)CC2(CCCC(COC(=O)NCCc3ccccc3OC)O2)O1 (stereo not given in full)
Result: bin B

Ask: Band of `CC(C)=NO[C@H](C)c1cn([C@H](CO)Cc2ccccc2)nn1` ?
Result: bin B

Ask: Assign a category based on measured z-score for `CC(C)=CCCC(C)=CCON=C1C[C@@H](O)[C@@H](O)[C@@H]2[C@@H]3C(=O)N(c4ccc(F)cc4F)C(=O)[C@@H]3CC[C@@H]12` and give only the class name.
Result: bin A

Ask: Which of the defined bands does the recorded z-score of `O=C1C=C[C@@H](O)[C@@H]2[C@@H]3C(=O)N(c4ccc(F)cc4F)C(=O)[C@@H]3CC[C@@H]12` sit within?
Result: bin B

Ask: Class? Entry: CC(CCN1CCCc2nc(C)c(C)cc21)=NOC(C)CN1CCCCc2nc(C)c(C)cc21 (stereo not given)
Result: bin B

* * *

System: wheat germ agglutinin (Triticum aestivum), Alexa647-labelled
Test: wheat germ agglutinin binders on compound microarrays, profiling panel, artefact control for SMM control-protein annotation, biochemical, small-molecule microarray, 635/667 nm fluorescence (AID 1140);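 note: score merges 667 nm feature emission with signal to noise over triplicate slides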
Settings: WGA-A647 binding, 635 nm fluorescence, higher = more signal
Test readout: composite z-score
Note: the reply should be a number with no unit written.

Example entries begin here.
Molecule	Recorded measurement
CC(C)C[C@H](NC(=O)CCC1CC(OC(=O)NCc2cccc3ccccc23)CC2(CCCC(COC(=O)NCc3ccccc3)O2)O1)C(=O)NCC(c1ccccc1)c1ccccc1 (stereo not given in full)	0.493
C[C@@H](c1ccccc1)N1C(=O)[C@H]2[C@H]3[C@H](O)[C@H](O)CC(=NO[C@@H]4O[C@H](CO)[C@@H](O)[C@H](O)[C@H]4O)[C@H]3CC[C@H]2C1=O	0.0795
CO[C@@H]1COC(=O)CC=C[C@H](C)[C@H](OC)COC(=O)[C@H](C)NC(=O)CC=C[C@H]1C	-0.54
Cc1ccc(S(=O)(=O)N[C@H]2COC(=O)CC=C[C@H](C)[C@@H](NS(=O)(=O)c3ccc(C)cc3)COC(=O)CC=C[C@@H]2C)cc1	0.0337
CCOC(=O)[C@H](Cc1ccccc1)NC(=O)CCC1CC(OC(=O)NCc2cccc3ccccc23)CC2(CCCC(COC(=O)NCC(c3ccccc3)c3ccccc3)O2)O1 (stereo not given in full)	-0.0722

Ask: Reported composite z-score for wheat germ agglutinin (Triticum aestivum), Alexa647-labelled, given `COc1cc(O)c(C(=O)C=Cc2ccc3c(c2)OCO3)c(OC)c1` ?
Result: 0.393

* * *

Experiment: PSAC antagonists in infected red cells, primary screen, cell-based, P. falciparum Indochina, OD700, 2 h (AID 1155);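 note: lysis reports solute entry through the parasite surface anion channel PSAC; channel blockers reduce lysis of infected cells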
Conditions: P. falciparum Indochina infected erythrocytes, osmotic lysis OD700; higher = more signal, called active from +8 up or from −8 down
Class y: z-score at least 0.3. Class n: z-score below 0.3.

Ask: Quick check: does COc1cccc([C@H]2Oc3ccc(OC)cc3C(=NOC(C)CN3CCCCc4nc(C)c(C)cc43)[C@@H]2O)c1 (stereo not given in full) have z-score greater than or equal to 0.3?
Result: y

Ask: Given the entry `CC(C)[C@@H](OCc1ccccc1)[C@H](C)C=NOC[C@@H](O)COCc1ccco1` , answer whether its z-score meets or surpasses 0.3.
Result: n

Ask: Could you verify whether the entry CCOC(=O)[C@H](CC(C)C)NC(=O)CCC1CC(OC(=O)NCCc2ccc(F)cc2)CC2(CCCC(COC(=O)NCCc3ccccc3OC)O2)O1 (stereo not given in full) shows z-score of no less than 0.3?
Result: n

Ask: Record COCCNC(=O)OCC1CCCC2(CC(OC(=O)NCc3ccc4c(c3)OCO4)CC(CCC(=O)N[C@@H](C)C(=O)OC)O2)O1 (stereo not given in full) ; criterion: z-score no lower than 0.3. Met?
Result: n

Ask: Is the recorded value of z-score equal to or greater than 0.3 for this compound? `C#CCCCON=C1C[C@@H](O)[C@@H](O)[C@@H]2[C@@H]3C(=O)N(C(C)(C)C)C(=O)[C@@H]3CC[C@H]12`
Result: y

* * *

Assay: binders of probe aHhip on microarray, primary screen, stem cell growth factor project, biochemical, small-molecule microarray, fluorescence 635/667 (AID 1087);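 note: score merges spot fluorescence at 667nm with spot signal to noise ratio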
Conditions: higher = more signal
Rule: Y for composite z-score not less than 0.03, N for anything less.

> print(dat)
                                   molecule  qualitative.label
1  CCN1C(=O)[C@H]2[C@H]3[C@H](O)[C@H](O)CC(=NOC[C@H]4O[C@H](c5ccccc5)C=C[C@@H]4Oc4ccc(OC)cc4)[C@@H]3CC[C@H]2C1=O                  Y
2  COC(=O)CC=C[C@@H](C)[C@@H](C=NOCC[C@@H]1C=C[C@H](OC(C)=O)[C@@H](COC(C)=O)O1)OC                  N
3  CCOC(=O)[C@H](Cc1ccccc1)NC(=O)OC1CC(CCC2CC(CC)=NO2)OC2(CCCC(COC(=O)NCCC(C)C)O2)C1 (stereo partly specified)                  N
4  CO[C@H]1COC(=O)[C@@H](C)COC(=O)[C@H](C)NC(=O)CC=C[C@H]1C                  N
5  O=C1[C@H]2[C@H]3[C@H](O)[C@H](O)CC(=NOC[C@@H](O)COCc4ccco4)[C@H]3CC[C@H]2C(=O)N1C[C@@H]1CCCO1                  N
6  O=c1n(-c2ccccc2)c(=O)n2n1CC[C@@H]1C(=NOCc3ccccc3)[C@H]3O[C@H]3[C@@H](O)[C@@H]12                  N

Ask: composite z-score >= 0.03 for `COC(=O)CC=C[C@@H](C)[C@@H](C=NO[C@@H]1O[C@H](COC(C)=O)[C@@H](OC(C)=O)[C@H](OC(C)=O)[C@H]1OC(C)=O)NS(=O)(=O)c1ccc(C)cc1` ?
Result: N

Ask: Please tell me: is the molecule COC(=O)CC=C[C@@H](C)[C@@H](C=NOC(C)CN1CCCc2nc(C)c(C)cc21)OC (stereo partly specified) at or over 0.03 in terms of composite z-score?
Result: N

Ask: Is it the case that `C#CCCCON=C1C[C@@H](O)[C@@H](O)[C@@H]2[C@@H]3C(=O)N(c4ccc(F)cc4F)C(=O)[C@@H]3CC[C@H]12` has composite z-score reaching or exceeding 0.03?
Result: Y

Ask: Quick check: does `O=C1C[C@@H](O)[C@@H](O)[C@@H]2[C@@H]3C(=O)N(Cc4ccc5c(c4)OCO5)C(=O)[C@@H]3CC[C@H]12` have composite z-score greater than or equal to 0.03?
Result: Y

Ask: composite z-score >= 0.03 for `Cc1ccc(S(=O)(=O)N[C@H]2COC(=O)CC=C[C@H](C)[C@@H](NS(=O)(=O)c3ccc(C)cc3)COC(=O)CC=C[C@@H]2C)cc1` ?
Result: Y

Ask: Could you verify whether the entry `CCc1cc2c(nc1CC)CCN(CCC(C)=NO[C@H](C)c1cn([C@H](CO)Cc3ccccc3)nn1)C2` shows composite z-score of no less than 0.03?
Result: N

Ask: Reported composite z-score reaches at least 0.03 for `C[C@@H]1C=CCC(=O)OC[C@H]2O[C@@H](C=C[C@@H]2O)[C@H](C)C=CCC(=O)OC1` ?
Result: Y

Ask: Form field: composite z-score at least 0.03? Entry: `COC(=O)[C@@H]1CC[C@H](C)[C@@H](c2ccc(C)cc2)N1C(=O)c1ccc(C=NO[C@H](C)c2cn([C@@H]3COC[C@H]3O)nn2)cc1`
Result: N

Ask: Has COC(=O)[C@H](C)NC(=O)CCC1CC(OC(=O)NCc2ccc3c(c2)OCO3)CC2(CCCC(COC(=O)NCCc3ccccc3OC)O2)O1 (stereo partly specified) a recorded composite z-score greater than or equal to 0.03?
Result: N

Ask: Identify whether the reported composite z-score of the following molecule is 0.03 or greater: CCOC(=O)[C@H](CC(C)C)NC(=O)CCC1CC(OC(=O)NCc2cccc3ccccc23)CC2(CCCC(COC(=O)NCCC(C)C)O2)O1 (stereo partly specified)
Result: N
